- System: MDA-MB-435 melanoma
- Experiment summary: NCI-60 one-dose screen, 48 h
- Cond: 10 µM unless noted
This is part of a sample that, as a whole, favours compounds with a hit. Of some 83,000 tested, about 20% had one in any assay. Activity calls are given as the source filed them. Rule for the calls: active = growth percent below 10; inactive = the rest.
Please state which outcome applies, choosing from active, inactive

Check out these entries, answers already filled in.
O=S(=O)(Nc1cc(F)cc(F)c1)c1ccc(-c2cnc(C3CC3)o2)cc1	active
CCCCCCCCn1ccc2cc(NC(=O)CN=[N+]=[N-])ccc21	inactive
Cc1ccc(S(=O)(=O)N2CCCN(c3nc(-c4ccccc4)nc4nc(-c5ccccc5)oc34)CC2)cc1	inactive
CNC(=O)c1cc(Oc2ccc3c(c2)sc2nc(-c4cc(C(F)(F)F)cc(C(F)(F)F)c4)cn23)ccn1	inactive
CCOC(=O)CC[C@H](NC(=O)c1ccc(N(C)Cc2cnc3nc(N)nc(N)c3n2)c2ccccc12)C(=O)OCC	inactive
CN(C)/C(N)=N/N=C(\c1ccccc1)c1ccccn1	inactive

### Prompt Called result for `C[N+]1=C(/C=C/c2ccccc2Cl)C(C)(C)c2ccccc21`
### Response inactive

====

- Tested on: KM12 colon
- Experiment summary: NCI-60 one-dose screen, 48 h
- Cond: 10 µM unless noted
- Experimental: Growth inhibition of the KM12 human tumor cell line is measured as a screen for anti-cancer activity. Cells are grown in 96 well plates and exposed to the test compound for 48 hours. Compounds are tested at a single concentration, which is 10^-5 M for most compounds. The reported endpoint is percent growth (GI% or GIPRCNT), where numbers from 0 - 100% represent growth inhibition, and numbers from -100% - 0 represent cell death. For example, a value of 40 represents 60% growth inhibition. […]
About 83,000 compounds went through this panel and 20% of them were active in at least one assay; those are over-represented in the sample as a whole. Calls of active or inactive are those of the source. How the source made its calls: active means growth percent below 10; inactive means the rest.
Bench note: report the call from TRUE (active), FALSE (inactive)

Examples with answers:
CCN1CCN(CCNc2nccc(-c3c(-c4ccc(F)c(O)c4)nc4occn34)n2)S1(=O)=O	FALSE
CCOC(=O)NC(=S)n1oc(=O)c2ccccc21	FALSE
COCC(=O)Oc1cc(-c2ccc(C)cc2C)c(OC(=O)COC)c(-c2ccc(C)cc2C)c1	FALSE
O=c1ccc2ccc(OCCN3CCCCC3)cc2o1	FALSE
O=C1CCC(C(=O)N/N=C/c2cc(F)ccc2F)N1 (stereo not given)	FALSE

### Prompt Called result for `CC(C)CCC[C@@H](C)[C@H]1CC[C@H]2[C@@H]3CC=C4c5sc(Nc6cc(C(F)(F)F)cc(C(F)(F)F)c6)nc5CC[C@]4(C)[C@H]3CC[C@]12C`
### Response FALSE

### Prompt Hey, what did the test say about `Cc1ccc(S(=O)(=O)OC[C@]23CCC(C)(C)C[C@H]2C2=CC[C@@H]4[C@@]5(C)CCCNC(C)(C)[C@@H]5CC[C@@]4(C)[C@]2(C)CC3)cc1` ?
### Response TRUE

### Prompt Which outcome did this test record for the molecule `Cc1cc(O)cc(-c2nn(C)cc2-c2cc(N3CCOCC3)nc(-c3cccnc3)n2)c1` ?
### Response FALSE

### Prompt Hi, sorry to bother you, what did the test record for `CC(=O)O[C@H]1CC[C@]2(C)[C@H]3CC=C4[C@@H]5CC(C)(C)CC[C@]5(C(=O)N5CCN(CCC#N)CC5)CC[C@@]4(C)[C@]3(C)CC[C@H]2C1(C)C` ?
### Response FALSE

### Prompt Which outcome did this test record for the molecule `O=c1oc2ccccc2cc1-c1nn(-c2ccccc2)cc1-c1nn[nH]n1` ?
### Response FALSE
